Target: T1, CD3 on primary human pan T cells (human, UniProt P07766 23-207)
T1 construct: on cells it stands in the TCR/CD3 complex; also called Pan T-cells (CD3-positive); endogenous CD3
T1 sequence (P07766 23-207 limits assumed): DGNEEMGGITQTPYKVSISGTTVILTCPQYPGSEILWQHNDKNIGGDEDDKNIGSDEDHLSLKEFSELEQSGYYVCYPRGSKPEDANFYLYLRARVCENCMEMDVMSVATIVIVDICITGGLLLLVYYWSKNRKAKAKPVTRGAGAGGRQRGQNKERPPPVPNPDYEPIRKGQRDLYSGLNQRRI
Experiment: flow cytometry, pan T-cells
measurement_kind: % Binding retained on T-cells, 55° C. (fraction)

binder: CD3B2086 (scFv) scFv: QVQLVQSGAEVKKPGSSVKVSCKASGYTFTRSTMHWVRQAPGQGLEWMGYINPSSAYTNYAQKFQGRVTLTADKSTSTAYMELSSLRSEDTAVYYCASPQVHYDYNGFPYWGQGTLVTVSSGGSEGKSSGSGSESKSTGGSEIVLTQSPATLSASPGERVTLSCSASSSVSYMNWYQQKPGTSPRRLIYDSSKLASGVPARFSGSGSGRDYTLTISSLEPEDFAVYYCQQWSRNPPTFGGGTKVEIK
measurement_kind: % Binding retained on T-cells, 55° C.
unit_info: fraction
observed: 1.01
//
binder: CD3B2058 (scFv) scFv: QVQLVQSGAEVKKPGSSVKVSCKASGYTFTRSTMHWVKQAPGQGLEWIGYINPSSAYTNYAQKFQGRVTLTADKSTSTAYMELSSLRSEDTAVYYCASPQVHYDYNGFPYWGQGTLVTVSSGGSEGKSSGSGSESKSTGGSEIVLTQSPATLSASPGERVTLSCSASSSVSYMNWYQQKPGTSPRRWIYDSSKLASGVPARFSGSGSGRDYTLTISSLEPEDFAVYYCQQWSRNPPTFGGGTKVEIK
measurement_kind: % Binding retained on T-cells, 55° C.
unit_info: fraction
observed: 1.05
//
binder: CD3B2045 (scFv) scFv: QVQLVQSGAEVKKPGSSVKVSCKASGYTFTRSTMHWVRQAPGQGLEWIGYINPSSAYTNYNQKFQGRVTLTADKSTSTAYMELSSLRSEDTAVYYCASPQVHYDYNGFPYWGQGTLVTVSSGGSEGKSSGSGSESKSTGGSEIVLTQSPATLSASPGERVTLSCSASSSVSYMNWYQQKPGQAPRRWIYDSSKLASGVPARFSGSGSGRDYTLTISSLEPEDFAVYYCQQWSRNPPTFGGGTKVEIK
measurement_kind: % Binding retained on T-cells, 55° C.
unit_info: fraction
observed: 1.05
//
binder: CD3B2082 (scFv) scFv: QVQLVQSGAEVKKPGSSVKVSCKASGYTFTRSTMHWVRQAPGQGLEWMGYINPSSAYTNYAQKFQGRVTLTADKSTSTAYMELSSLRSEDTAVYYCASPQVHYDYNGFPYWGQGTLVTVSSGGSEGKSSGSGSESKSTGGSEIVLTQSPATLSASPGERVTLSCSASSSVSYMNWYQQKPGTSPRRWIYDSSKLASGVPARFSGSGSGRDYTLTISSLEPEDFAVYYCQQWSRNPPTFGGGTKVEIK
measurement_kind: % Binding retained on T-cells, 55° C.
unit_info: fraction
observed: 1.11
//
binder: CD3B2030 (scFv) scFv: QVQLVQSGAEVKKPGSSVKVSCKASGYTFTRSTMHWVKQAPGQGLEWIGYINPSSAYTNYNQKFQGRVTLTADKSTSTAYMELSSLRSEDTAVYYCASPQVHYDYNGFPYWGQGTLVTVSSGGSEGKSSGSGSESKSTGGSEIVLTQSPATLSASPGERVTLSCSASSSVSYMNWYQQKPGQAPRRWIYDSSKLASGVPARFSGSGSGRDYTLTISSLEPEDFAVYYCQQWSRNPPTFGGGTKVEIK
measurement_kind: % Binding retained on T-cells, 55° C.
unit_info: fraction
observed: 1.05
